The reported numbers originate from patent US8377883B2.

- System: mice liver cancer H22 cells
- TEST_DETAILS: Tumor suppression by FpAT and derivative peptides in liver cancer H22 tumor-bearing mouse model (Example 14)
- Format: in vivo, mice of Kunming strain
- EXPERIMENTAL_SETUP: peptides 50 μg/100 μl PBS/injection, angulus oculi medialis vein daily, 7 times; CTX 80 mg/KG; tumors weighed
VALUE_KIND: tumor suppressing rate (%)
Your answer is read as %, so omit the unit and give the number.

Examples from the recorded data:
[
  {
    "SUBSTANCE": "H2N-Asp-Ser-Gly-Glu-Gly-Asp-Phe-Leu-Ala-Glu-Gly-Gly-COOH (H-DSGEGDFLAEGG-OH; listed as Homo sapiens) [FpAT-C3d]",
    "UNIT_ANNOTATION": "%",
    "tumor suppressing rate": 46.7
  },
  {
    "SUBSTANCE": "H2N-Phe-Leu-Ala-Glu-Gly-Gly-Gly-Val-Arg-COOH (H-FLAEGGGVR-OH; listed as Homo sapiens) [FpAT-N6d]",
    "UNIT_ANNOTATION": "%",
    "tumor suppressing rate": 57.6
  },
  {
    "SUBSTANCE": "H2N-Asp-Phe-Leu-Ala-Glu-Gly-COOH (H-DFLAEG-OH; listed as Homo sapiens) [FpAT-N5d-C4d]",
    "UNIT_ANNOTATION": "%",
    "tumor suppressing rate": 56.4
  },
  {
    "SUBSTANCE": "H2N-Asp-Ser-Gly-Glu-Gly-Asp-Phe-Leu-Ala-Glu-Gly-Gly-Gly-Val-Arg-COOH (H-DSGEGDFLAEGGGVR-OH; listed as Homo sapiens) [FpAT, fibrinopeptide A truncated, carboxyl terminal 15 amino acids of fibrinopeptide A]",
    "UNIT_ANNOTATION": "%",
    "tumor suppressing rate": 65.4
  },
  {
    "SUBSTANCE": "H2N-Asp-Ser-Gly-Glu-Gly-Asp-COOH (H-DSGEGD-OH; listed as Homo sapiens) [FpAT-C9d]",
    "UNIT_ANNOTATION": "%",
    "tumor suppressing rate": 34.5
  },
  {
    "SUBSTANCE": "H2N-Glu-Gly-Asp-Phe-Leu-Ala-Glu-Gly-Gly-Gly-Val-Arg-COOH (H-EGDFLAEGGGVR-OH; listed as Homo sapiens) [FpAT-N3d]",
    "UNIT_ANNOTATION": "%",
    "tumor suppressing rate": 63.3
  },
  {
    "SUBSTANCE": "H2N-Asp-Ser-Gly-Glu-Gly-Asp-Phe-Leu-Ala-COOH (H-DSGEGDFLA-OH; listed as Homo sapiens) [FpAT-C6d]",
    "UNIT_ANNOTATION": "%",
    "tumor suppressing rate": 32.3
  }
]

According to the records, this substance H2N-Glu-Gly-Gly-Gly-Val-Arg-COOH (H-EGGGVR-OH; listed as Homo sapiens) [FpAT-N9d] displays tumor suppressing rate of 34.5
